Each entry below carries its recorded EC50.
test system: RSV A2; experiment: Screening for RSV inhibition using Viral ToxGlo assay (cytopathic effect inhibition in HEp-2 cells); format: cell-based, Respiratory Syncytial Virus (RSV); conditions: human respiratory syncytial virus; RSV A2 in HEp-2 cells, MOI 0.5, 72h p.i., cytopathic effect inhibition relative to virus control, Viral ToxGlo luminescence
OBSERVATION TYPE: EC50 (nM)

INSERT INTO assay_data (compound, system, observation_type, unit_name, experimental_result) VALUES
  ('CC1(NC(=O)c2nccc(Nc3c(F)cc(C(=O)N=C4NCCN4)cc3C3CC3)c2F)CC1 [Compound 99]', 'RSV A2', 'EC50', 'nM', 35.3),
  ('O=C(N=C1NCCN1)c1cc(F)c(Nc2cccc(C(=O)N3CCOCC3)c2)c(C2CC2)c1 [Compound 119]', 'RSV A2', 'EC50', 'nM', 108),
  ('CC(C)NC(=O)c1cccc(Nc2ccc(C(=O)N=C3N(C)CCN3C)cc2C(C)(C)C)c1 [Compound 71]', 'RSV A2', 'EC50', 'nM', 1170),
  ('CC(C)NC(=O)c1cccc(Nc2ccc(C(=O)/N=C3\NCCN3C)cc2C(C)(C)C)c1 [Compound 17]', 'RSV A2', 'EC50', 'nM', 19.8);

* * *

Tested on: RSV A2
Experiment: Screening for RSV inhibition using Viral ToxGlo assay (cytopathic effect inhibition in HEp-2 cells)
Assay type: cell-based, Respiratory Syncytial Virus (RSV)
Settings: human respiratory syncytial virus; RSV A2 in HEp-2 cells, MOI 0.5, 72h p.i., cytopathic effect inhibition relative to virus control, Viral ToxGlo luminescence
Protocol: Protocol for Screening Antiviral Compounds for RSV Inhibition and Cytotoxicity Using Viral ToxGlo Assay […] Cell plates were further incubated inside a humid chamber for 72h p.i at 37° C./5% CO2. […] Plates were incubated at room temperature, protected from light on a plate rocker for 20 minutes before measuring the luminescence on a spectrophotometer (Biotek Synergy HTX).
pEC50: −log10 of the molar value.
// label = yes (1) if pEC50 is not less than 8, otherwise no (0)

INSERT INTO assay_data (compound, system, answer_label) VALUES
  ('CC1(NC(=O)c2cc(F)cc(Nc3ccc(C(=O)N=C4NCCN4)cc3C3CC3)c2F)CC1 [Compound 139]', 'RSV A2', 'no (0)'),
  ('CC(=O)N1CCN/C1=N\C(=O)c1ccc(Nc2cccc(OCCCC3CCCCC3)c2)c(C2CC2)c1 [Compound 46]', 'RSV A2', 'no (0)'),
  ('O=C(N=C1NCCN1)c1ccc(Nc2cccc(C(=O)N3CCOCC3)c2Cl)c(C2CCCO2)c1 (stereo not shown) [Compound 97]', 'RSV A2', 'no (0)'),
  ('CC(C)NC(=O)c1cccc(Nc2ccc(C(=O)/N=C3\NCC(=O)N3)cc2C(C)(C)C)c1 [Compound 49]', 'RSV A2', 'no (0)'),
  ('CC(C)(C)C1(NC(=O)c2cccc(Nc3ccc(C(=O)N=C4NCCN4)cc3C3CC3)c2)CC1 [Compound 111]', 'RSV A2', 'no (0)'),
  ('CC(C)NC(=O)c1cccc(Nc2c(F)cc(C(=O)N=C3NCCN3)cc2C2CC2)c1 [Compound 91]', 'RSV A2', 'yes (1)'),
  ('O=C(N=C1NCCN1)c1cc(F)c(Nc2cccc(C(=O)N3CCOCC3C(F)(F)F)c2)c(C2CC2)c1 (stereo not shown) [Compound 142]', 'RSV A2', 'no (0)'),
  ('COc1c(Nc2ccc(C(=O)N=C3NCCN3)cc2C2CC2)cccc1C(=O)NCCC(C)C [Compound 27]', 'RSV A2', 'no (0)'),
  ('Cc1cc(C(=O)N=C2NCCN2)cc(C2CC2)c1Nc1cccc(C(=O)NC(C)C)c1 [Compound 106]', 'RSV A2', 'yes (1)'),
  ('O=C(N=C1NCCN1)c1ccc(Nc2cccc(C(=O)N3CCS(=O)(=O)CC3)c2Cl)c(C2CC2)c1 [Compound 103]', 'RSV A2', 'no (0)'),
  ('CC1(NC(=O)c2cccc(Nc3ccc(C(=O)N=C4NCCN4)cc3S(C)(=O)=O)c2Cl)CC1 [Compound 102]', 'RSV A2', 'no (0)'),
  ('Cc1c(Nc2ccc(C(=O)N=C3NCCN3)cc2C2CC2)cccc1C(=O)NC1(C#N)CC1 [Compound 64]', 'RSV A2', 'no (0)'),
  ('O=C(N=C1NCCN1)c1cc(F)c(Nc2cccc(C(=O)N3CCOCC3)c2Cl)c(C2CCOC2)c1 (stereo not shown) [Compound 134]', 'RSV A2', 'no (0)');

* * *

Each entry below carries its recorded pEC50.
test system: RSV A2; experiment: Screening for RSV inhibition using Viral ToxGlo assay (cytopathic effect inhibition in HEp-2 cells); assay type: cell-based, Respiratory Syncytial Virus (RSV); conditions: human respiratory syncytial virus; RSV A2 in HEp-2 cells, MOI 0.5, 72h p.i., cytopathic effect inhibition relative to virus control, Viral ToxGlo luminescence
pEC50: −log10 of the molar value.
OBSERVATION TYPE: pEC50

INSERT INTO measurements (smiles_input, system, experimental_result) VALUES
  ('CC(C)NC(=O)c1cc(F)cc(Nc2c(F)cc(C(=O)N=C3NCCN3)cc2C2CC2)c1', 'RSV A2', 7.88),
  ('O=C(N=C1NCCN1)c1ccc(Nc2cccc(C(=O)N3CCOCC3)c2Cl)c(C(F)(F)F)c1', 'RSV A2', 7.81),
  ('CC(C)CC1(NC(=O)c2cccc(Nc3ccc(C(=O)N=C4NCCN4)cc3C3CC3)c2)CC1', 'RSV A2', 7.85);
